assayTarget: P. falciparum apicoplast DNA polymerase (Pf-apPOL) (Plasmodium falciparum, UniProt Q8ILY1)
Sequence (Q8ILY1 entry or part of it): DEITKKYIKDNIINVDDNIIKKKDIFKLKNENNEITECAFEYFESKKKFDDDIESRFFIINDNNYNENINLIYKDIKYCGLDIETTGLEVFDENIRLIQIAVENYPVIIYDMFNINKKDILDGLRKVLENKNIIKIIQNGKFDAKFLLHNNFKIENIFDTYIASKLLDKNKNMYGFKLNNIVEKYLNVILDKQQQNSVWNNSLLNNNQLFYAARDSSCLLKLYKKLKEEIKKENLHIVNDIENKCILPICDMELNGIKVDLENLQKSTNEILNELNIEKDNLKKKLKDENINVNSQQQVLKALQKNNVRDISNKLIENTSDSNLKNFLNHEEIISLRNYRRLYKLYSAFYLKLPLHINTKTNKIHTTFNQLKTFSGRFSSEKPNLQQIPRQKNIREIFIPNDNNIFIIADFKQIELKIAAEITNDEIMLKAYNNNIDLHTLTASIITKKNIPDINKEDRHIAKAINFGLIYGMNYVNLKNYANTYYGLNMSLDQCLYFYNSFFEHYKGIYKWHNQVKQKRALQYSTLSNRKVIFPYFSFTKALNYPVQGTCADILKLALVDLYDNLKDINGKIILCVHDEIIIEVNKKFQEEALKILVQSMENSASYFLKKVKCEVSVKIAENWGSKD
experimentalProtocol: Fluorescence-based high-throughput DNA polymerase assay (molecular beacon), primary screen and dose-response;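 also: test concentration in µM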
Format: biochemical
testParameters: DRC-2; concentration 40; 90'
As shown below, each of these molecules has a reported % inhibition ApPOL 90' value.
Could you give me the number in %? Just the number is fine.

// worked examples, % inhibition ApPOL 90' included
{"columns": ["molecule", "% inhibition ApPOL 90' / %"],
 "data": [
  ["CCCN1COc2ccc3c(=O)c(-c4ccccc4)coc3c2C1", 51],
  ["O=C(O)c1nc(-c2ccccc2)nc2c1OCO2", 69],
  ["COc1cc(/C=C2\\C(=O)N(c3ccc(C(=O)O)cc3)N=C2C(F)(F)F)ccc1OCC(C)C", 71],
  ["O=C(O)c1cc([N+](=O)[O-])c(N2CCN(c3cccc(C(F)(F)F)c3)CC2)c([N+](=O)[O-])c1", 63],
  ["CCc1ccccc1NC(=O)c1ccc(-c2ncccc2NC(C)=O)cc1", 70],
  ["Cc1ccnc(NS(=O)(=O)c2ccc(-n3cccc3)cc2)n1", 75],
  ["O=C(Cc1cccs1)N1CCN(c2nc(CN3CCOCC3)cs2)CC1", 69],
  ["COc1ccc(C=C2Oc3c(ccc4c3CN(Cc3ccco3)CO4)C2=O)c(OC)c1", 56],
  ["O=C1c2ccccc2C(=O)c2c1oc1c3c(ccc21)OCN(C1CCCC1)C3", 68],
  ["COc1ccc(NC(=O)Cn2nc3c(cc2=O)CCC3)cc1Cl", 74]
]}

Return reported % inhibition ApPOL 90'. Input molecule: `COc1ccc(-c2occ(C(=O)O)c2C(=O)O)cc1` 75

Return reported % inhibition ApPOL 90'. Input molecule: CCOc1ccc2cc(C3=NN(C(=O)CCC(=O)O)C(c4ccc(C)cc4)C3)c(=O)[nH]c2c1 (centres unmarked) 73

Return reported % inhibition ApPOL 90'. Input molecule: `CCCCCc1c2c(cc(O)c1C(=O)O)OC(=O)c1c(cc(OC)cc1C(=O)CCCC)O2` 66

Return reported % inhibition ApPOL 90'. Input molecule: `Nc1ncnc(NC2CCCCC2)c1[N+](=O)[O-]` 63

Return reported % inhibition ApPOL 90'. Input molecule: `Cc1cc(C)nc(Nc2nc(CC(=O)Nc3nc(-c4ccco4)cs3)cs2)n1` 70

Return reported % inhibition ApPOL 90'. Input molecule: O=C(Cn1ccc2c(=O)[nH]ccc21)Nc1ccccc1Cl [Molecule 19, O=C(Cn1ccc2c1cc[nH]c2=O)Nc1ccccc1Cl] 70

Return reported % inhibition ApPOL 90'. Input molecule: `Oc1cccnc1/N=C/c1cc(I)cc(I)c1O` 75

Return reported % inhibition ApPOL 90'. Input molecule: `Cc1ccc(C2=N/C(=C\c3ccc(I)o3)C(=O)O2)cc1[N+](=O)[O-]` 75

Return reported % inhibition ApPOL 90'. Input molecule: `O=[N+]([O-])c1ccc(SCc2ccco2)c2cccnc12` 75

Return reported % inhibition ApPOL 90'. Input molecule: `O=C(Nc1c2c(nn1-c1ccccc1)CSC2)c1ccco1` 70

* * *

assayTarget: UniProtKB Q8ILY1
experimentalProtocol: Fluorescence-based high-throughput DNA polymerase assay (molecular beacon), primary screen and dose-response
Format: biochemical
testParameters: DRC-2; 180'; concentration 5
reportedProperty: % inhibition apPOL 180'
Enter the number, and then the unit.

// worked examples, % inhibition apPOL 180' included
{"columns": ["compound", "experimentalValue"],
 "data": [
  ["O=C(Cn1ccc2c(=O)[nH]ccc21)Nc1cccc(Cl)c1 [Molecule 23, O=C(Cn1ccc2c1cc[nH]c2=O)Nc1cccc(c1)Cl]", "18%"],
  ["Cc1ccc(C(=O)/C=C/C=C/C=C/N(C)C)o1 [Molecule 96, CN(/C=C/C=C/C=C/C(=O)c1ccc(o1)C)C]", "13%"],
  ["Cc1cc(C)c2c(c1)C1C=CCC1C(c1ccc(C(=O)O)cc1)N2 (stereo not drawn) [Molecule 102]", "40%"],
  ["CC(NC(=O)Cc1cc(=O)[nH]c(SCc2cccc(Cl)c2)n1)c1ccccc1 (stereo not drawn) [Molecule 67]", "-6%"],
  ["CCOC(=O)C1=C2c3cc(OC)c(OC)cc3CC(C)(C)N2C(=O)C1=O [KU0193659]", "1.35%"],
  ["O=C(Nc1ccc2c(c1)Cc1cc(NC(=O)c3ccco3)ccc1-2)c1ccco1 [KU0038977]", "-3.38%"],
  ["Cc1ccsc1Cn1c(C)ccc1C [Molecule 70, Cc1ccsc1Cn1c(C)ccc1C]", "-6%"],
  ["COc1ccc(-c2cc3nc4c(c(=O)n3[nH]2)CCN(C(=O)CCc2ccccc2)C4)cc1 [Molecule 17]", "6%"]
]}

Return reported % inhibition apPOL 180'. Input compound: CCCCc1ccc(NC(=O)CSc2nc(O)c(C#N)c(C3CCCCC3)n2)c(C)c1 [Molecule 8] -0.274%
